System: Escherichia coli TOP10;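 also: peptides expressed intracellularly from a pBAD plasmid library in pooled LB shake-flask culture, induced with 0.3% L-arabinose, DNA abundance read by NGS, three biological replicates, DESeq2 with apeglm shrinkage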
Measurement Notes: shrunken log2 fold change of peptide-encoding DNA abundance (4.5 h post-induction vs induction); higher = less antimicrobial activity (less host growth inhibition)
Setup Conditions: time post-induction: 4.5 h; library: site-saturation at positions 5, 18, 19, 20
Cut-off 0.07 on shrunken log2 fold change, inclusive. At or above means True; below means False.

Please review the entries below; each comes with its answer.
>  <Sequence>
RRIRGRPPRLPRPRPRPHCSPRP

>  <Label>
True

$$$$
>  <Sequence>
RRIRNRPPRLPRPRPRPMLIPRP

>  <Label>
False

$$$$
>  <Sequence>
RRIRHRPPRLPRPRPRPQDRPRP

>  <Label>
False

$$$$

Exercise: In plain terms: is recorded shrunken log2 fold change at least 0.07 for RRIRTRPPRLPRPRPRPCAPPRP ?
Key: False

Sourced from the supplement of paper PMC9112550
